biological target: UniProt P43490; assay: NMN fluorescence biochemical assay (human recombinant NAMPT enzyme assay)
Sequence (P43490 whole entry): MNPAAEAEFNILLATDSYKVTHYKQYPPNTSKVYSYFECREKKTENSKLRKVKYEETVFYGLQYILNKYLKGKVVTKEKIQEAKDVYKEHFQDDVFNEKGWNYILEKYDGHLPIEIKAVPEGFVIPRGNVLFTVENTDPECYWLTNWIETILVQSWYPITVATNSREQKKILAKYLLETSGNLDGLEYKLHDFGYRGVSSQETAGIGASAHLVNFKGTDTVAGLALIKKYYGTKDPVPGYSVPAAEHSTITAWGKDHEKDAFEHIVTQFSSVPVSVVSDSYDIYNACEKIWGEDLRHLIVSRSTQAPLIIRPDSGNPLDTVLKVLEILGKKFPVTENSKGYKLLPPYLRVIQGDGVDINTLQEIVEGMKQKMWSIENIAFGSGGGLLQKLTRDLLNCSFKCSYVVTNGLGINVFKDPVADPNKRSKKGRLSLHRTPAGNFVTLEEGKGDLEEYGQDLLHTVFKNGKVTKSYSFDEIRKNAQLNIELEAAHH
measurement-kind: EC50 (µM)

Which EC50 is reported for this compound? "C[C@H](NC(=O)C1CCOCC1)c1ccc(NC(=O)OCc2ccc(Cl)cc2)cc1"
8.14

Which EC50 is reported for this compound? "O=C(Nc1ccc(CNC(=O)c2cccnn2)cc1)OCc1ccc(Cl)cc1"
2.4

Which EC50 is reported for this compound? "O=C(Nc1ccc(CC2CCN(C(=O)C3COC3)CC2)cc1)OCc1cnco1"
31

(I) Cc1noc(Cc2ccc(NC(=O)OCc3ccc(Cl)cc3)cc2)n1
(II) Cc1ccc(C(=O)NCc2ccc(NC(=O)OCc3cncs3)cc2)cn1
(III) CN1CC(=O)NC[C@@H]1c1ccc(NC(=O)OCc2ccc(Cl)cc2)cc1
(IV) O=C(Cc1ccc(NC(=O)OCc2ccc(Cl)cc2)cc1)Nc1cncc(F)c1
(V) O=C(Nc1ccc(CNC(=O)c2ocnc2C2CC2)cc1)OCc1ccc(Cl)cc1
# rank_down: sort by EC50, max first Present the labels in the sequence the task asks for.
I, V, IV, III, II
(I: 34 µM, V: 21.9 µM, IV: 14.4 µM, III: 8.45 µM, II: 5.12 µM)

(a) CS(=O)(=O)N1CC2CCC(C1)C2Cc1ccc(NC(=O)OCc2cnco2)cc1 (stereo not drawn)
(b) Cc1cc(C(=O)NCc2ccc(NC(=O)OCc3ccc(Cl)cc3)cc2)ccn1
Hi, I'm comparing two records. Which one has the lower EC50, a or b ? Please identify the chosen entry by its label.
b
(b: 4.39 µM, a: 6.55 µM)
